assay-system: PRMT5 (Homo sapiens, UniProt O14744)
Construct: purchased Viva (custom protein)
Sequence (O14744 whole entry): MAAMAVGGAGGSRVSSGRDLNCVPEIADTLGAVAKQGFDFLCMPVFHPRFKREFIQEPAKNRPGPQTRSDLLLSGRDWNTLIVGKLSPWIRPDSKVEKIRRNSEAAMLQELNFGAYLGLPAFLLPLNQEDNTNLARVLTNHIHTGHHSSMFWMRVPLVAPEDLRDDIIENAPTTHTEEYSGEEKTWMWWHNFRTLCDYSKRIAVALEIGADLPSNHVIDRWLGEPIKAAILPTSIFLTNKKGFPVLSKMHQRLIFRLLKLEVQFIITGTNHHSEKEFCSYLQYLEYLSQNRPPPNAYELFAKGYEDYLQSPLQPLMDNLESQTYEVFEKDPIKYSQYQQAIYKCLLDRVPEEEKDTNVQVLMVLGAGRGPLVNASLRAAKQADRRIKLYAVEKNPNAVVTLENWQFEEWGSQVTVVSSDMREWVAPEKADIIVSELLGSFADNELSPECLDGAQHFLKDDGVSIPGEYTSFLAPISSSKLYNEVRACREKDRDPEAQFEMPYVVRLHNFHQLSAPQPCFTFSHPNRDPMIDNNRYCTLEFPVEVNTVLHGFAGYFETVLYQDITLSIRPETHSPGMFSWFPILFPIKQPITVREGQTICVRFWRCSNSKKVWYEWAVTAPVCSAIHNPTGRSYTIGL
Sequence (Q9BQA1 whole entry partner): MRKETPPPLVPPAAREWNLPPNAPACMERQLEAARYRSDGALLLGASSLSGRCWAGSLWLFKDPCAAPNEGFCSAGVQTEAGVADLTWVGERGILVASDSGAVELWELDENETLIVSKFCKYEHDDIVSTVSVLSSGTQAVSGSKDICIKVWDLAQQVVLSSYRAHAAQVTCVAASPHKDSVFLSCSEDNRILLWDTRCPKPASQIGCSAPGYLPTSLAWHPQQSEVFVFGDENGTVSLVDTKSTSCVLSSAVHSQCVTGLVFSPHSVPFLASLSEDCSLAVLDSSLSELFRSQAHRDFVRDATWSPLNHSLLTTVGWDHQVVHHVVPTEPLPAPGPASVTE
procedure-summary: PRMT5 biochemical IC50 assay with MTA as cofactor
particulars: PRMT5, MTA as cofactor; read-out: MTA IC50
This section presents compounds with their documented IC50 values.

Below, each entry is followed by its recorded IC50 result.
Input line: Fetch value of IC50 on PRMT5 (Homo sapiens, UniProt O14744) for C[C@@H]1CC[C@@H](c2ccc3c(c2)CCC3)N(C(=O)C(=O)Nc2cncc(C(N)=O)c2)C1 (racemic) .
Output line: < 50 nM

Input line: Print PRMT5 (Homo sapiens, UniProt O14744) IC50 for CNc1ccc([C@@H]2CC[C@H](C)CN2C(=O)C(=O)Nc2cnc(OC)c(C(N)=O)c2)cn1 (single isomer, unassigned) .
Output line: > 500 nM

Input line: Specify IC50 for C[C@H]1CC[C@H](c2ccc(N[C@H](C)C(=O)N(C)C)cc2)N(C(=O)C(=O)Nc2cncc(C(N)=O)c2)C1 (racemic) , system PRMT5 (Homo sapiens, UniProt O14744).
Output line: 50 to 500 nM

Input line: Fill in: IC50 on PRMT5 (Homo sapiens, UniProt O14744), entry Cc1cc(NC(=O)C(=O)N2CCCC[C@H]2c2ccccc2)cnc1N (single isomer, unassigned)
Output line: 50 to 500 nM

Input line: # assay system PRMT5 (Homo sapiens, UniProt O14744): give IC50 of Cc1cc(NC(=O)C(=O)N2C[C@@H](C)[C@@H](OC(F)(F)F)C[C@@H]2c2ccc(F)cc2)cnc1N (single isomer, unassigned)
Output line: < 50 nM

Input line: Report value: IC50, system: PRMT5 (Homo sapiens, UniProt O14744), compound: COc1cc([C@@H]2CC[C@@H](C)CN2C(=O)C(=O)Nc2cncc(C(N)=O)c2)ccc1F (racemic)
Output line: < 50 nM

Input line: Print PRMT5 (Homo sapiens, UniProt O14744) IC50 for Cc1cc(NC(=O)C(=O)N2CCCC[C@@H]2c2cccs2)cnc1N (single isomer, unassigned) .
Output line: < 50 nM

Input line: Please report the measured IC50 for COc1ncc(NC(=O)C(=O)N2C[C@@H](C)CC[C@@H]2c2ccc3sc([C@H]4CCN(C)C[C@H]4C)nc3c2)cc1C(N)=O (racemic) tested on PRMT5 (Homo sapiens, UniProt O14744).
Output line: < 50 nM

Input line: Answer with IC50 of CCc1cc(NC(=O)C(=O)N2C[C@H](C)CC[C@H]2c2ccc3cnccc3c2)cnc1N (single isomer, unassigned) measured for PRMT5 (Homo sapiens, UniProt O14744).
Output line: < 50 nM

Input line: Retrieve IC50 on PRMT5 (Homo sapiens, UniProt O14744); query Cc1cc(NC(=O)C(=O)N2CC[C@@H](C)C[C@H]2c2ccccc2)cnc1N (racemic)
Output line: 50 to 500 nM

Further cases:
Input line: State measured IC50 of the compound CNC(=O)N1CCC([C@@H]2CC[C@@H](C)CN2C(=O)C(=O)Nc2cnc(N)c(C)c2)CC1 (racemic) with PRMT5 (Homo sapiens, UniProt O14744).
Output line: 50 to 500 nM

Input line: Enter recorded IC50 with PRMT5 (Homo sapiens, UniProt O14744) for Cc1cc(NC(=O)C(=O)N2C[C@H](C)CC[C@H]2c2ccc(N)cn2)cnc1N (racemic) here.
Output line: 50 to 500 nM

---

# maps each entry to its pIC50
assay-system: PRMT5 (Homo sapiens, UniProt O14744)
Construct: purchased Viva (custom protein)
procedure-summary: PRMT5 biochemical IC50 assay with SAM as cofactor
particulars: PRMT5, SAM as cofactor; read-out: SAM IC50
pIC50: −log10 of the molar value.

Take a look at these entries with their results.
Input line: Recall and state the measured pIC50 for CCc1cc(NC(=O)C(=O)N2C[C@@H](C)CC[C@@H]2c2ccc3nn(C4CC(C)(C)N(C)C(C)(C)C4)cc3c2)cnc1N (racemic) .
Output line: > 7.30

Input line: Complete the entry with pIC50 for COc1ncc(NC(=O)C(=O)N2C[C@H](C)CC[C@H]2c2ccc3cnccc3c2)cc1C(N)=O (single isomer, unassigned)
Output line: < 6.30

Here's the next entry for you.
Input line: Using known records, supply pIC50 for COc1ccc([C@@H]2CC[C@@H](C)CN2C(=O)C(=O)Nc2cncc(C(N)=O)c2)cc1 (racemic)
Output line: 6.30 to 7.30

---

assay-system: PRMT5 (Homo sapiens)
Construct: purchased Viva (custom protein)
procedure-summary: PRMT5 biochemical IC50 assay with SAM as cofactor
particulars: PRMT5, SAM as cofactor; read-out: SAM IC50
readout-kind: IC50

Input line: Complete the entry with IC50 for CCc1cc(NC(=O)C(=O)N2C[C@H](C)CC[C@H]2c2ccc(N3CCN(CC)CC3)cc2)cnc1N (single isomer, unassigned)
Output line: 50 to 500 nM

Input line: Read the entry C[C@@H]1CC[C@@H](c2ccc(F)c(Cl)c2)N(C(=O)C(=O)Nc2cncc(C(N)=O)c2)C1 (racemic) [Compound 338] and write its reported IC50.
Output line: 50 to 500 nM

Input line: Give IC50 for Cc1cncc(NC(=O)C(=O)N2C[C@H](C)CC[C@H]2c2cccc(N)c2)c1 (racemic)
Output line: > 500 nM

Input line: Check the records and state IC50 for NC(=O)c1cncc(NC(=O)C(=O)N2CC[C@H]3C[C@@H](O)CC[C@@H]3C2)c1 (racemic)
Output line: > 500 nM

Now look at this one.
Input line: Give the reported IC50 for this compound. COc1ncc(NC(=O)C(=O)N2C[C@H](C)CC[C@@H]2C2CCCCC2)cc1C(N)=O (single isomer, unassigned)
Output line: > 500 nM

---

assay-system: PRMT5 (Homo sapiens, UniProt O14744)
Construct: purchased Viva (custom protein)
procedure-summary: PRMT5 biochemical IC50 assay with MTA as cofactor
particulars: PRMT5, MTA as cofactor; read-out: MTA IC50
readout-kind: IC50

Input line: For CCc1cc(NC(=O)C(=O)N2C[C@@H](C)CC[C@@H]2c2cccc(OCCN3CCCC3)c2)cnc1N , write its IC50.
Output line: < 0.05 µM

Input line: Tell me IC50 reported for Cc1c(NC(=O)C(=O)N2C[C@H](C)CC[C@H]2c2ccccc2)cnc(N)c1C (single isomer, unassigned)
Output line: 0.05 to 0.5 µM

Input line: Using the record for Cc1cc(NC(=O)C(=O)N2C[C@@H](C)CC[C@@H]2c2ccc(N)cc2)cnc1N (single isomer, unassigned) , state its measured IC50.
Output line: > 0.5 µM

Input line: Consider the molecule C[C@@H]1C[C@H](F)[C@@H](c2ccc(F)cc2)N(C(=O)C(=O)Nc2cncc(C(N)=O)c2)C1 (racemic) . State its measured IC50.
Output line: < 0.05 µM

Input line: Read the entry COc1ncc(NC(=O)C(=O)N2C[C@@H](C)CC[C@@H]2c2ccc3[nH]cnc3c2)cc1C(N)=O (single isomer, unassigned) and write its reported IC50.
Output line: > 0.5 µM

Input line: For the molecule CCc1cc(NC(=O)C(=O)N2C[C@@H](C)CC[C@@H]2c2ccc3sc(C(F)(F)F)nc3c2)cnc1N (single isomer, unassigned) , give its reported IC50.
Output line: < 0.05 µM

Input line: Name the recorded IC50 of the item C[C@H]1CN(C(=O)C(=O)Nc2cnc(N)c(C3CC3)c2)[C@H](c2ccc3scnc3c2)CC1(F)F (single isomer, unassigned) in your answer.
Output line: 0.05 to 0.5 µM

Input line: Given C[C@H]1C[C@@H](C)[C@H](c2ccccc2)N(C(=O)C(=O)Nc2cncc(C(N)=O)c2)C1 (single isomer, unassigned) , respond with its IC50.
Output line: > 0.5 µM

More entries:
Input line: Give the measured IC50 for C[C@@H]1CC[C@@H](c2cn[nH]c2)N(C(=O)C(=O)Nc2cncc(C(N)=O)c2)C1 (single isomer, unassigned)
Output line: > 0.5 µM

Input line: Respond only with IC50 recorded for Cc1cc(NC(=O)C(=O)N2C[C@@H](C)CC[C@@H]2c2cccnc2)cnc1N (single isomer, unassigned)
Output line: > 0.5 µM

---

assay-system: PRMT5 (Homo sapiens)
Construct: purchased Viva (custom protein)
procedure-summary: PRMT5 biochemical IC50 assay with MTA as cofactor
particulars: PRMT5, MTA as cofactor; read-out: MTA IC50
pIC50: −log10 of the molar value.
readout-kind: pIC50

Input line: Supply pIC50 value. Item: Cc1cc(NC(=O)C(=O)N2CC(C)CC(C)C2c2ccccc2)cnc1N (mixture of isomers) [Compound 314]
Output line: 6.30 to 7.30

Input line: Give a short answer stating reported pIC50 for Cc1c(NC(=O)C(=O)N2C[C@H](C)CC[C@H]2c2ccc(O)cc2)cnc(N)c1C (single isomer, unassigned) [Compound 391] .
Output line: < 6.30

Input line: Please list pIC50 recorded for the compound C[C@@H]1CC[C@@H](c2ccc(S(N)(=O)=O)cc2)N(C(=O)C(=O)Nc2cncc(C(N)=O)c2)C1 (racemic) [Compound 651]
Output line: 6.30 to 7.30

Input line: Name the recorded pIC50 of the item CCc1cc(NC(=O)C(=O)N2C[C@@H](C)CC[C@@H]2c2ccc(N3CCC(CN(C)CC)CC3)cc2)cnc1N [Compound 1232] in your answer.
Output line: > 7.30

Input line: Look up pIC50 of Cc1cc(NC(=O)C(=O)N2C[C@H](C)CC[C@H]2c2cc3cn[nH]c3s2)cnc1N (racemic) [Compound 815] and report it.
Output line: > 7.30

More entries:
Input line: Provide one value: measured pIC50 of COc1ncc(NC(=O)C(=O)N2C[C@@H](C)CC[C@@H]2c2cscn2)cc1C(N)=O (single isomer, unassigned) [Compound 1033]
Output line: < 6.30

Input line: Give pIC50 for the following compound: CN(C)c1cccc([C@@H]2CCCCN2C(=O)C(=O)Nc2cncc(C(N)=O)c2)c1 (single isomer, unassigned) [Compound 365]
Output line: > 7.30

Input line: Give recorded pIC50. CC[C@H]1CC[C@H](c2ccccc2)N(C(=O)C(=O)Nc2cncc(C)c2)C1 (single isomer, unassigned) [Compound 18]
Output line: < 6.30
